# Test system: PU.1 dependent gene expression
# protocolDescription: RT-qPCR of mRNA levels in BV2 PU.1-Luciferase cells (validation round 3); also: test concentration or dose not given here
# Type: cell-based, mouse
# measurementConditions: 2-day treatment
Entries and their mRNA levels Spi1 values follow.
propertyName: mRNA levels Spi1

CC(=O)c1c(C)oc2ccc(N(C(=O)Oc3ccccc3)S(=O)(=O)c3ccc(C(C)(C)C)cc3)cc12	0.915 multiples of 1×
Cc1c(Cl)ccc2sc(N3CCN(C(=O)CCS(=O)(=O)c4ccc(F)cc4)CC3)nc12	1.020 multiples of 1×
Cc1ccccc1NC(=O)C(C)Sc1nc2ccccc2c(=O)n1C (centres unmarked)	0.865 multiples of 1×
CCOc1ccc(S(=O)(=O)NCc2ccncc2)cc1C(C)C	0.781 multiples of 1×
Cc1c(Cl)cccc1-n1ncc(C(=O)Nc2ccc3c(c2)OCCO3)c1C1CCN(C(=O)OC(C)(C)C)CC1	0.922 multiples of 1×
COc1cccc2cc(C(=O)Nc3ccc(N4CCNCC4)cc3)c(=O)oc12	1.072 multiples of 1×
O=S(=O)(NCc1ccncc1)c1ccc(C2CCCCC2)cc1	1.001 multiples of 1×
Cc1cccc(Cn2cccc(C(=O)Nc3nc4ccccc4s3)c2=O)c1	0.943 multiples of 1×
